Quick reference for Papp A→B among some compounds
# Measurement notes: Apparent permeability from apical to basolateral side in human Caco2 cells by LC-MS analysis
# Format: ADME, cell-based
# Experimental conditions: Caco-2
Square brackets hold non-standard residues; d marks the D form. Peptide text beside a SMILES is read from it. NMeW = CN[C@@H](Cc1c[nH]c2ccccc12)C(=O)O

{"columns": ["Compound", "Reading unit", "Qualifier symbol", "Papp A→B"],
 "data": [
  ["CC(C)C[C@@H]1NC(=O)[C@H](Cc2ccccc2)NC(=O)[C@H]([C@@H](C)O)NC(=O)CNC(=O)[C@H](C(C)C)NC(=O)[C@H](Cc2ccc(O)cc2)NC1=O (cyclo(FLYVGT))", "×10⁻⁶ cm/s", "=", 0.11],
  ["CC(C)C[C@@H]1NC(=O)[C@@H](CC(C)C)N(C)C(=O)[C@@H](CC(C)C)N(C)C(=O)[C@H](Cc2ccc(O)cc2)NC(=O)[C@@H]2CCCN2C(=O)[C@@H](CC(C)C)NC1=O", "×10⁻⁶ cm/s", "=", 11.9],
  ["CC(C)C[C@@H]1NC(=O)[C@H](Cc2ccccc2)NC(=O)CNC(=O)[C@@H](C)NC(=O)[C@H](Cc2ccc(O)cc2)NC(=O)[C@@H]2CCCN2C1=O", "×10⁻⁶ cm/s", "<", 0.14],
  ["CC(C)C[C@@H]1C(=O)N(C)[C@@H](CC(C)C)C(=O)N[C@@H](Cc2ccc(O)cc2)C(=O)N(C)[C@H](C)C(=O)N(C)CC(=O)N[C@@H](Cc2ccccc2)C(=O)N1C", "×10⁻⁶ cm/s", "=", 4.77],
  ["CN1C(=O)[C@H]2CCCN2C(=O)[C@H](CCCCN)NC(=O)[C@H](CCCNC(=N)N)NC(=O)[C@@H](CCCNC(=N)N)NC(=O)[C@H](CCCNC(=N)N)NC(=O)[C@@H]1Cc1c[nH]c2ccccc12", "×10⁻⁶ cm/s", "<", 0.14],
  ["CC(C)C[C@@H]1NC(=O)[C@@H](CC(C)C)NC(=O)[C@@H](CC(C)C)NC(=O)[C@H](Cc2c[nH]c3ccccc23)NC(=O)[C@@H]2CCCN2C(=O)[C@@H](CC(C)C)NC1=O", "×10⁻⁶ cm/s", "=", 17.5],
  ["CC(C)C[C@@H]1NC(=O)[C@H](Cc2ccc(O)cc2)NC(=O)[C@H]2CCCN2C(=O)[C@H](CC(C)C)NC(=O)[C@H](CC(C)C)N(C)C(=O)[C@@H](CC(C)C)N(C)C1=O", "×10⁻⁶ cm/s", "=", 10.8],
  ["CC(C)C[C@@H]1NC(=O)[C@H](Cc2ccccc2)NC(=O)CNC(=O)[C@H](C)NC(=O)[C@H](Cc2ccc(O)cc2)NC(=O)[C@H]2CCCN2C1=O", "×10⁻⁶ cm/s", "=", 0.27],
  ["CC(C)C[C@@H]1NC(=O)[C@H](C(C)C)NC(=O)[C@H](Cc2c[nH]c3ccccc23)N(C)C(=O)[C@H](Cc2ccccc2)NC(=O)[C@H](Cc2ccccc2)NC(=O)[C@@H]2CCCN2C1=O (cyclo(FF[NMeW]VLP))", "×10⁻⁶ cm/s", "=", 1.7],
  ["CC(C)C[C@@H]1NC(=O)[C@H](Cc2ccc(O)cc2)NC(=O)[C@@H]2CCCN2C(=O)[C@@H](CC(C)C)NC(=O)[C@@H](CC(C)C)N(C)C(=O)[C@@H](CC(C)C)N(C)C1=O", "×10⁻⁶ cm/s", "=", 21.8]
]}
